Target: Cathepsin K (Homo sapiens)
Sequence (P43235 whole entry): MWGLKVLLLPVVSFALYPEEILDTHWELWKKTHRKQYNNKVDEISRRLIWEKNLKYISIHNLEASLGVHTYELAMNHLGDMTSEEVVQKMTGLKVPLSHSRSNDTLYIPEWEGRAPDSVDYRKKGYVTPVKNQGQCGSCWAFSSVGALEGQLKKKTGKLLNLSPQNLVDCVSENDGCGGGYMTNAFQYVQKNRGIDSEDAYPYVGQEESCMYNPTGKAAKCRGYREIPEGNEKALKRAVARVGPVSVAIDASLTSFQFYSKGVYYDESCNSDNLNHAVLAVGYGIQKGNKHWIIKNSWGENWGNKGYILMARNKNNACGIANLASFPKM
quantityName: Ki

Dear colleague, I am looking for the recorded Ki of the following compound: `CC(C)C[C@H](NC(=O)OCc1ccccc1)C(=O)NNC(=O)c1csc([C@H](CC(C)C)NC(=O)OCc2ccccc2)n1` 10 nM
